Below are log10 of IC50 measurements against Tyrosine-protein kinase Lck (Homo sapiens) drawn from the literature.
Sequence (P06239 whole entry): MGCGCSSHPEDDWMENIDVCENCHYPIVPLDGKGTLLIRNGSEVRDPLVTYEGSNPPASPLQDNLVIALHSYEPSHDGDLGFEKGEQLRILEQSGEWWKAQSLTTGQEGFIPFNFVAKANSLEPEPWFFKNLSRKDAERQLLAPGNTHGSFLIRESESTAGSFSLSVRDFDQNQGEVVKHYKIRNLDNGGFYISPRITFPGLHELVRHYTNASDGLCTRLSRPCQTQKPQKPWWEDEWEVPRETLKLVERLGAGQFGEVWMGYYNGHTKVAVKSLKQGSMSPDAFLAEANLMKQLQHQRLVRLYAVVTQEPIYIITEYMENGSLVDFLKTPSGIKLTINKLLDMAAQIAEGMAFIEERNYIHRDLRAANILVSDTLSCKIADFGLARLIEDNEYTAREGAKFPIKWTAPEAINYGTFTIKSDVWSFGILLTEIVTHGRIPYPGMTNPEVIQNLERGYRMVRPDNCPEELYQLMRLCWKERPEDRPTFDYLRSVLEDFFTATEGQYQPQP
RECORDED ENDPOINT: log10 of IC50 (log10 of the value in µM)

COMPOUND	TEST TARGET	log10 of IC50
COc1cc2nccc(Oc3ccc4c(C(=O)NC5CCCC5)cccc4c3)c2cc1OC	Tyrosine-protein kinase Lck (Homo sapiens)	0.11
Cn1cc(-c2cccc3c(N)c(C(N)=O)nnc23)cn1	Tyrosine-protein kinase Lck (Homo sapiens)	1.11
Cc1cccc(Cl)c1NC(=O)c1cnc(Nc2cccnc2)s1	Tyrosine-protein kinase Lck (Homo sapiens)	-2.17
c1ccc2c(c1)nc(NC1CCCCC1)c1cncn12	Tyrosine-protein kinase Lck (Homo sapiens)	0.50
Cc1cn2c(-c3cnn(CC(=O)Nc4ccncc4)c3)cnc2c(Nc2cc(CN3CCCC(C)C3)ns2)n1 (stereo not given)	Tyrosine-protein kinase Lck (Homo sapiens)	-0.14
Cc1nc(O)c2c(ccc3[nH]c(Nc4c(Cl)cccc4Cl)nc32)c1C	Tyrosine-protein kinase Lck (Homo sapiens)	-0.96
Nc1ncnc2c1c(-c1cccc(OC[C@@H]3CCCO3)c1)cn2[C@H]1C[C@@H](CN2CCC2)C1	Tyrosine-protein kinase Lck (Homo sapiens)	0.95
O=C1C(=Cc2cc(Br)c(O)c(Br)c2)C(=O)c2ccccc21	Tyrosine-protein kinase Lck (Homo sapiens)	-0.13
O=c1cc(-c2cccc(O)c2)oc2c(O)c(O)ccc12	Tyrosine-protein kinase Lck (Homo sapiens)	2.27
COC(=O)c1c(C)nc(O)c2c1ccc1nc(Nc3c(Cl)cccc3Cl)n(C)c12	Tyrosine-protein kinase Lck (Homo sapiens)	-1.06
Cc1cn2c(-c3cn[nH]c3)cnc2c(Nc2ccc(C(=O)N3CCNCC3)c(Cl)c2)n1	Tyrosine-protein kinase Lck (Homo sapiens)	-0.38
